Recorded yeast fitness (ln) values for a group of variants are listed next.
B1: tRNA (parent)
chain: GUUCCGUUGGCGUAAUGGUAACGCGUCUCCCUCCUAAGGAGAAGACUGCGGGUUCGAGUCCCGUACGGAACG

- Variants of: B1
- Test details: yeast fitness, log relative to wild type (ln ratio); higher = fitter; tRNA-Arg(CCU), competitive growth, 37 C, 1 M NaCl
Response field accepts a number only; no unit should be typed.

* U2C G6U C66A A70U | 0.0021
* G1A U2G G6A C27U C46U C66U A70U C71U | -0.0596
* C46U A70G | -0.00475
* U2G G6A C27U A43C C46U C66A A70U | -0.115
* G1A U2C C66U C71U | -0.189

In: Consider the variant shown here: G1A U2G A43C C46U C66U A70U C71U What is its recorded yeast fitness (ln)?
Out: -0.242

In: Consider next the variant A43C C66U A69G in the same way.
Out: -0.174

In: Consider next the variant G6U C27U C71U in the same way.
Out: -0.222

In: Consider next the variant G1A U2C G6A A43C C46U C66U A70U in the same way.
Out: -0.0467
